Biological target: Proto-oncogene tyrosine-protein kinase receptor Ret [G810R] (Human, UniProt P07949, G810R)
Sequence (P07949 29-1114 G810R limits assumed): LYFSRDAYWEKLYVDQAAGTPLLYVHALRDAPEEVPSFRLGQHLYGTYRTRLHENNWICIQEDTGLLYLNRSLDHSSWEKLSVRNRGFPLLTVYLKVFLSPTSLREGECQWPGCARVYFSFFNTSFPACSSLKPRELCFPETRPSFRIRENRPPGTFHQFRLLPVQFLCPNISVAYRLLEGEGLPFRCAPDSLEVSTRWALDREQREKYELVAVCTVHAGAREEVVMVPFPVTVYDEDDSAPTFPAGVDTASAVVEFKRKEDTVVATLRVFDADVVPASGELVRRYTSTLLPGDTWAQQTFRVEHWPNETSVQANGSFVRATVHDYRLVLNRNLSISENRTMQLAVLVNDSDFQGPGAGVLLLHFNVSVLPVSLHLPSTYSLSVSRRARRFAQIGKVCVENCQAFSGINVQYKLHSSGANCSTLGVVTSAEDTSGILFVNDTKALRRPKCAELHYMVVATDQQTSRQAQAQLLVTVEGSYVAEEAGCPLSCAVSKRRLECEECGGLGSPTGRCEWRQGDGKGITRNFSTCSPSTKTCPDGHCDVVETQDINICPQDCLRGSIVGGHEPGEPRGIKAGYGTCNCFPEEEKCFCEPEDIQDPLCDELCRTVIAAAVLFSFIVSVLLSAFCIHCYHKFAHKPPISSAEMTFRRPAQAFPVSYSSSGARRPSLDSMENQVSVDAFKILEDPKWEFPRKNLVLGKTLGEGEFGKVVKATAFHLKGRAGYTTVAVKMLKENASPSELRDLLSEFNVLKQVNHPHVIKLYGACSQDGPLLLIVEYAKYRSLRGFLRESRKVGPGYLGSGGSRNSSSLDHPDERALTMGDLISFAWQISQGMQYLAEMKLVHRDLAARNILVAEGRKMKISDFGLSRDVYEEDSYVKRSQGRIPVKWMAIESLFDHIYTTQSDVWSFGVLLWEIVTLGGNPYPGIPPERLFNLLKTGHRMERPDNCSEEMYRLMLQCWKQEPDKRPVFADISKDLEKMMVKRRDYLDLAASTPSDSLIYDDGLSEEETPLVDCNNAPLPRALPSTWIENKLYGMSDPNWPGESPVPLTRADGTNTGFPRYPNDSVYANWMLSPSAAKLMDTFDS
Experiment: HTRF Assay
reported_endpoint: IC50 (nM)

>>> readout_value("CCOc1cc(-c2ccc(N3C[C@H](Oc4ccccn4)[C@@H](N)C3)nc2)c2c3cn[nH]c3nn2c1")
2.6

[1] CCOc1cc(-c2ccc(N3CC[C@H](NC(=O)CC(C)C)[C@H](O)C3)nc2)c2c3cn[nH]c3nn2c1
[2] CCOc1cc(-c2ccc(N3C[C@H]4C[C@@H](NC(=O)c5c(F)cccc5Cl)C[C@H]4C3)nc2)c2c3cn[nH]c3nn2c1
[3] CCOc1cc(-c2ccc(N3CC[C@H](NC(=O)c4ncc(F)cc4Cl)[C@H](O)C3)nc2)c2c3cn[nH]c3nn2c1
Enquiry: // ranking: key=IC50, reverse=True Return the labels ranked in the requested order, please.
Return: 2, 3, 1
(2: 12.1 nM, 3: 5 nM, 1: 2.2 nM)
